TGI values by entry
System: K-562 leukemia
METHOD_DESCRIPTION: NCI tumour cell line growth inhibition, 48 h

Ask | Can you look up TGI on K-562 leukemia for "CC(=O)/C(=C/c1ccccc1)C(=O)CC(C)C" ?
Reply | > 100 µM

Ask | Repeat with CN(CCCCCl)P(=O)(OCCS(=O)(=O)CC(NC(=O)CCC(N)C(=O)O)C(=O)NC(C(=O)O)c1ccccc1)OCC1OC(n2ccc(N)nc2=O)C(O)C1O (stereo not given)
Reply | > 75 µM

Ask | Repeat with "O=S(=O)([O-])c1ccc(N=Cc2ccccc2[O-])cc1.O=S(=O)([O-])c1ccc(N=Cc2ccccc2[O-])cc1.[Co+2]"
Reply | > 100 µM

Ask | Repeat with CC1CN=C(NS(=O)(=O)c2cc(C(=O)Nc3ccc(Cl)cc3)c(Cl)cc2S)NN1 (stereo not given)
Reply | > 100 µM

Ask | Repeat with "NCCc1ccc(S(=O)(=O)F)cc1"
Reply | > 100 µM

* * *

Test system: SW-620 colon
METHOD_DESCRIPTION: NCI tumour cell line growth inhibition, 48 h
REPORTED_ENDPOINT: TGI

- COc1ccc(C=Nc2c(C(=O)Nc3cccc(Cl)c3C)sc3nc(C)c(C(=O)/C=C/c4ccc(OC)cc4)cc23)cc1: > 50 µM
- CC(C)N1CCN(c2ccncc2S(=O)(=O)N2CCCCC2)CC1: > 100 µM
- COCCN(CCNC(=O)c1cccc2c(N)c3cccc(C)c3nc12)CCOC: > 50.2 µM
- Oc1ccc(O)c(-c2cn3c(n2)SCC3)c1: 8.17 µM
- COC(=O)c1ccccc1N(C(=O)c1ccccc1)c1ccccc1C: > 100 µM
- CCOC(=O)C(=O)Nc1nc2c(OCC)cccc2s1: > 100 µM
- O=C1CSC(c2c[nH]c3ccccc23)N1c1ccc(Cl)cc1 (stereo unspecified): > 100 µM
- COc1cccc(C23CCCC(C2)NCC3Br)c1OC (stereo unspecified): > 100 µM
- CC(=O)c1[nH]c(NC(C)C)c(C(=S)Nc2ccccc2)c1N: > 100 µM
- O=C(CN(C(=O)OC12CC3CC(CC(C3)C1)C2)C(=O)OC12CC3CC(CC(C3)C1)C2)Oc1ccc([N+](=O)[O-])cc1: > 100 µM

From here, focus on the item given below.
Ask | What value of TGI has been reported for the following molecule? CCOC(=O)C(NC(=O)c1ccccc1)(Nc1ccc(S(=O)(=O)Nc2ncccn2)cc1)C(F)(F)F (stereo unspecified)
Reply | > 100 µM

* * *

Test system: BT-549 breast
METHOD_DESCRIPTION: NCI tumour cell line growth inhibition, 48 h
TGI values by entry

Here's what some known entries look like.
- COc1ccc(/C(C)=N/NC(=O)c2ccncc2)c(OC)c1: > 10 µM
- COc1cc(C(=O)O[C@H](C(=O)NCCCNC(=O)[C@@H](OC(=O)c2cc(OC)cc3c(C)cccc23)[C@]2(C)CO2)[C@]2(C)CO2)c2cccc(C)c2c1: 2.29 µM
- CCCc1n(Cc2ccc3ccccc3c2)cc[n+]1Cc1ccc2ccccc2c1: 2.16 µM

Ask | What value of TGI has been reported for the following molecule? COC(=O)C1=C(O)[C@H](C(=O)OC)C2(O)C(C(=O)OC)[C@H](c3ccc(OC(=O)C(C)c4ccccc4)cc3)C[C@@H]1[C@@H]2C(=O)OC (stereo partly drawn)
Reply | > 50 µM

Ask | Repeat with "C=C1C(=O)O[C@H]2[C@H]1CC/C(COC(=O)NCc1c[nH]c3ccccc13)=C\CC[C@@]1(C)O[C@@H]21"
Reply | 6.3 µM

Ask | Repeat with "O=C(CN(C(=O)OC12CC3CC(CC(C3)C1)C2)C(=O)OC12CC3CC(CC(C3)C1)C2)Oc1ccc([N+](=O)[O-])cc1"
Reply | > 100 µM

Ask | Repeat with "CCCCn1c(CSc2ccc(Cl)cc2)c(C(=O)OCC)c2cc(OC)c(Br)cc21"
Reply | > 100 µM

Ask | Repeat with CC1CN=C(NS(=O)(=O)c2cc(C(=O)Nc3ccc(Cl)cc3)c(Cl)cc2S)NN1 (stereo not drawn)
Reply | > 100 µM
